Target: PLK4 (Homo sapiens)
Sequence (O00444 1-970): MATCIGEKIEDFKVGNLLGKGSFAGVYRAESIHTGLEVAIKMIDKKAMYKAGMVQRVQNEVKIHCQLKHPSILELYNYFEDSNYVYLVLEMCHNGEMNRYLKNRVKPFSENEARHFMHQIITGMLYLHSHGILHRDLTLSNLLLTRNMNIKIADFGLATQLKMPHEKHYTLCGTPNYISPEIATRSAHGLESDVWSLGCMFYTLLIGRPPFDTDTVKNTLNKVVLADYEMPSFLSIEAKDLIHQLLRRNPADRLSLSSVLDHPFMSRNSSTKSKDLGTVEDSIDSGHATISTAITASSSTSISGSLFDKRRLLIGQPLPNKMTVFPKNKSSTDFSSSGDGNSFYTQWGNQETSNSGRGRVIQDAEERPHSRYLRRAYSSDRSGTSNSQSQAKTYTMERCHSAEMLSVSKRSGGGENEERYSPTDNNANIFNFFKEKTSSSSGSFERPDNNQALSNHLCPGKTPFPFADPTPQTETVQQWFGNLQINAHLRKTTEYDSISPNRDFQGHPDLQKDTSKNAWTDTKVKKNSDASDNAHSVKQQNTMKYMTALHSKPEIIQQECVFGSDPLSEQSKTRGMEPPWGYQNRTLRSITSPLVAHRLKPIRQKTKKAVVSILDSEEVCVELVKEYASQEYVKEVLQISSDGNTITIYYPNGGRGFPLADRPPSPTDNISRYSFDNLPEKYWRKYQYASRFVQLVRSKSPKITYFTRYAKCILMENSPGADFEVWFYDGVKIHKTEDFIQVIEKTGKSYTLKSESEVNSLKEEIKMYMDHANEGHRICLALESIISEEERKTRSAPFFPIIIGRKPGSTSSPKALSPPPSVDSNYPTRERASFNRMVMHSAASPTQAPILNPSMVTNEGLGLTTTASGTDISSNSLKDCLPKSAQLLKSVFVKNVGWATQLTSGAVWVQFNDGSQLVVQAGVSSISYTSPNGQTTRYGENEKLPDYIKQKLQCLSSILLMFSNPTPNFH
Assay: PLK4 NanoBRET target engagement assay
Conditions: HEK293 T cells transfected with PLK4 NanoLuc fusion vector; K-5 tracer; 2 hrs incubation
Just a reminder that ties go to f: only IC50 strictly below 70 nM counts as t.

query: IC50 strictly < 70 nM for this compound? Cc1cc(Nc2nc(N(C)c3c(F)cc(S(C)(=O)=O)cc3F)nc(-c3cnn(C4CS(=O)(=O)C4)c3)c2C2CC2)n[nH]1 [Compound 186]
result: t

query: IC50 strictly < 70 nM for this compound? COc1c(Nc2cc(C)[nH]n2)nc(N(C(C)=O)c2ccc(S(C)(=O)=O)cc2F)nc1-c1cnn(C)c1 [Compound 41]
result: f

query: IC50 strictly < 70 nM for this compound? Cc1cc(Nc2nc(N(C)c3c(F)cc(S(C)(=O)=O)cc3F)nc(Nc3ccn(C)n3)c2C2CC2)n[nH]1 [Compound 325]
result: t

query: IC50 strictly < 70 nM for this compound? COc1c(Nc2cc(C)[nH]n2)nc(Sc2ccc(S(C)(=O)=O)cc2F)c(Cl)c1-c1cnn(C)c1 [Compound 100]
result: f

query: IC50 strictly < 70 nM for this compound? Cc1cc(Nc2nc(N(C)c3c(F)cc(S(C)(=O)=O)cc3F)nc(-c3cn(CC(C)(C)O)nc3C)c2C2CC2)n[nH]1 [Compound 330]
result: t

query: IC50 strictly < 70 nM for this compound? COc1c(Nc2cc(C)[nH]n2)nc(N(C)c2ccc(S(C)(=O)=O)nc2)nc1-c1cnn(C)c1 [Compound 58]
result: f

query: IC50 strictly < 70 nM for this compound? Cc1cc(Nc2nc(N(C)c3c(F)cc(S(C)(=O)=O)cc3F)nc(-c3cncn3C)c2C2CC2)n[nH]1 [Compound 134]
result: t

query: IC50 strictly < 70 nM for this compound? CN(c1nc(Nc2cc(C3CC3)[nH]n2)c(C2CC2)c(-c2cn(C)cn2)n1)c1ccc(S(C)(=O)=O)cc1F [Compound 315]
result: t

query: IC50 strictly < 70 nM for this compound? Cc1cc(Nc2nc(N(C)c3c(F)cc(B(O)O)cc3F)nc(-c3cn(C)cn3)c2C2CC2)n[nH]1 [Compound 351]
result: t

query: IC50 strictly < 70 nM for this compound? Cc1cc(Nc2nc(N(C)c3c(F)cc(S(C)(=O)=O)cc3F)nc(-c3cn(CCOC(F)(F)F)c(C)n3)c2C2CC2)n[nH]1 [Compound 259]
result: t

query: IC50 strictly < 70 nM for this compound? Cc1cc(Nc2nc(N(C)c3c(F)cc(S(C)(=O)=O)cc3F)nc(C3CC3)c2C2CC2)n[nH]1 [Compound 138]
result: f

query: IC50 strictly < 70 nM for this compound? Cc1cc(Nc2nc(N(C)c3ccc(S(C)(=O)=O)cc3Br)nc(-c3cnn(C)c3)c2C2CC2)n[nH]1 [Compound 53]
result: t

query: IC50 strictly < 70 nM for this compound? COC1CCc2ncc(-c3nc(N(C)c4c(F)cc(S(C)(=O)=O)cc4F)nc(Nc4cc(C)[nH]n4)c3C3CC3)n2C1 (centres unmarked) [Compound 255]
result: t
